Test system: MYO3B
DETAILS: concentration: 1 μM, replicates: in singlicate; n = 1
RECORDED METRIC: %Inh
Please make sure the unit comes right after the number.

query: Name the recorded %Inh of CC(C)(C)OC(=O)NC1CCCN(c2cc(-c3ccc4c(N)n[nH]c4c3)nc(N)n2)C1 (centres unmarked) [GSK2286096] , assay system MYO3B.
result: 0%

query: Look up and report measured %Inh (MYO3B) for the following molecule: `Cn1ccc2ncnc(Nc3ccc(Oc4cccc(Cl)c4)c(Cl)c3)c21`
result: 3%

query: For MYO3B, give the measured %Inh of the entry Cl.c1ccc(Cn2ccc3cc(Nc4ncnc5ccccc45)ccc32)cc1 [GW275568]
result: 0%

query: # return %Inh for Nc1nc(-c2ccc3c(N)n[nH]c3c2)cc(N2CCC[C@@H](C(=O)Nc3ccccc3)C2)n1.O=C(O)C(F)(F)F.O=C(O)C(F)(F)F [GSK2288359] , test system: MYO3B
result: 0%

query: Name the value of %Inh reported for Cl.Cn1ccc(-c2cccc(Nc3ccnc4cc(-c5nccs5)ccc34)c2)n1 [GW525701] when tested on MYO3B.
result: 0%

query: # assay system MYO3B: give %Inh of CSc1ccc(NC2=C(c3ccccc3Cl)C(=O)NC2=O)cc1 [SB-342411]
result: 0%

query: Provide %Inh, system MYO3B, entry COC(=O)c1cccc(NC(=O)NCCNc2ccnc(Nc3ccc(F)cc3)n2)c1 [GSK1379883]
result: 0%

query: Provide %Inh, system MYO3B, entry Nc1nc(-c2ccccn2)c(-c2ccnc3ccccc23)s1 [GW548057]
result: 0%

query: Look up MYO3B data: %Inh of COc1ccc(NC(=O)c2ccc(-c3cc(-c4nnc(C)o4)ccc3C)cc2)cc1 [GW595885] , then report it.
result: 16%

query: Enter %Inh (test system MYO3B) for Cl.Fc1ccccc1COc1ccc(Nc2ncnc3ccc(-c4nnc(C(F)(F)F)o4)cc23)cc1Cl [GW424170]
result: 0%

query: Please report %Inh with MYO3B for item COc1ccc(-c2oc3ncnc(N)c3c2-c2ccc(OC)cc2)cc1 [SB-589132] .
result: 0%

query: Given CNc1nccc(-c2c(-c3ccc(F)cc3)ncn2C2CCN(C)CC2)n1 [SB-222903] , report its %Inh on MYO3B.
result: 19%

query: Lab note: record %Inh of `N#Cc1ccc(Oc2ccc(Nc3ncnc4cc[nH]c34)cc2Cl)cc1` tested on MYO3B.
result: 38%

query: System MYO3B. Read-out %Inh. Item COc1ccc(Nc2nccc(N3CCC(NC(=O)Nc4ccc5c(c4)OCO5)C3)n2)cc1 (centres unmarked) [GSK1379745] . Report value.
result: 3%

query: Report value only: %Inh, MYO3B, CC(=O)Nc1n[nH]c2ncc(-c3ccccc3)cc12 [SB-548492]
result: 0%

query: # assay system MYO3B: give %Inh of `COC(=O)c1c(-c2ccccc2)c2cc(Cl)ccc2c(=O)n1Cc1ccc(S(C)(=O)=O)cc1`
result: 0%

query: Report value only: %Inh, MYO3B, CCc1nc(-c2cccc(N(C)S(=O)(=O)c3ccccc3)c2)c(-c2ccnc(Nc3ccc(N4CCN(C(C)=O)CC4)nc3)n2)s1 [GSK1645895]
result: 0%

###

Test system: JAK3(JH1domain-catalytic);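 note: kd values determined as follow-up on hits from a single-replicate KINOMEscan panel screen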
RECORDED METRIC: pKd
Units for pKd: none; it is -log10 of a concentration expressed in mol/L.

query: Determine its reported pKd: `C[C@@H]1CCN(C(=O)CO)C[C@@H]1N(C)c1ncnc2[nH]ccc12`
result: 8.44

###

Test system: CDK2
DETAILS: concentration: 1 μM, replicates: in singlicate; n = 1
RECORDED METRIC: %Inh (%)
The response must be a number in % with no trailing unit.

query: For the molecule `Fc1cccc(COc2ccc(Nc3ncnc4cc[nH]c34)cc2Cl)c1` , give its reported %Inh.
result: 11

query: Let me know recorded %Inh for `O=C(CCO)NCCn1ccc2ncnc(Nc3ccc(Oc4cccc(C(F)(F)F)c4)c(Cl)c3)c21` , thanks.
result: 0

query: Supply reported %Inh belonging to this molecule: `Cc1cc(N2CCC(NS(=O)(=O)c3ccc(F)cc3)CC2)nc(Nc2cccc(C#N)c2)n1.O=C(O)C(F)(F)F`
result: 4

query: Read off the recorded %Inh for `Cl.O=S(=O)(c1cccc(F)c1)c1ccc(Nc2ncnc3cc(Br)sc23)cc1Cl`
result: 6

query: Note %Inh for the molecule shown: `Cn1cc(-c2ccc3c(c2)CCN3C(=O)Cc2cccc(C(F)(F)F)c2)c2c(N)ncnc21`
result: 0

query: Specify measured %Inh for `C[C@H]1CC[C@@H](C(=O)Nc2ccccc2)CN1c1cc(-c2ccc3c(N)n[nH]c3c2)nc(N)n1` .
result: 0

query: Provide %Inh value for the following molecule: `CS(=O)(=O)CCNCc1ccc(-c2ccc3ncnc(Nc4ccc(OCc5ccccc5)c(Cl)c4)c3c2)o1.Cl`
result: 5

query: Please give the documented %Inh of `COc1cc2c(Nc3cccc(NC(=O)c4ccccc4)c3)ncnc2cc1OCCCN1CCOCC1`
result: 0

###

Tested on: FGR
DETAILS: concentration: 1 μM, replicates: in singlicate; n = 1
RECORDED METRIC: %Inh (%)
Number in %, nothing else.

query: Provide measured %Inh on FGR for Nc1nc(-c2cccnc2)c(-c2ccnc3ccccc23)s1 [GW684083] please.
result: 24

query: Give %Inh for this entry on FGR: O=C(Nc1ccccc1F)NC1CCN(c2ccnc(Nc3ccc(F)cc3)n2)C1 (stereo not drawn) [GSK1379722]
result: 9

query: Provide %Inh, system FGR, entry CS(=O)(=O)CCNCc1nc(-c2ccc3ncnc(Nc4ccc(OCc5cccc(F)c5)c(Cl)c4)c3c2)cs1.Cl [GW583340]
result: 11

###

Test system: HIPK4
DETAILS: concentration: 1 μM, replicates: in singlicate; n = 1
RECORDED METRIC: %Inh (%)
Give the number; % is assumed, so skip it.

query: Return reported %Inh. Input molecule: `Fc1cccc(COc2ccc(Nc3ncnc4cc[nH]c34)cc2Cl)c1`
result: 9

query: Annotate the molecule O=C(c1ccc(-c2cc(-c3c[nH]nc3-c3ccccn3)ccn2)cc1)N1CCCC1 [GW792479] with its measured %Inh.
result: 24

query: Item `O=C(CCO)NCCn1ccc2ncnc(Nc3ccc(Oc4cccc(C(F)(F)F)c4)c(Cl)c3)c21` : provide %Inh
result: 0

query: Name the recorded %Inh of the item Cc1ccc(C)c(NC(=O)NCCNc2ccnc(Nc3ccc(F)cc3)n2)c1 [GSK1379878] in your answer.
result: 0

query: Note down %Inh recorded for `O=C(NCCCN1CCCC1=O)c1cnc(NCc2cc(Cl)ccc2Cl)nc1NC1CCNCC1`
result: 13

query: Using known records, supply %Inh for Cc1ccc(NC(=O)c2cccc(C#N)c2)cc1-c1ccc(C(=O)Nc2ccncc2)cc1 [GSK1398463]
result: 0

query: Report measured %Inh; entry is CC(C)(C)OC(=O)NC1CCCN(c2cc(-c3ccc4c(N)n[nH]c4c3)nc(N)n2)C1 (centres unmarked) [GSK2286096]
result: 0

query: Using known records, supply %Inh for COC(=O)c1cccc(NC(=O)NCCNc2ccnc(Nc3ccc(F)cc3)n2)c1 [GSK1379883]
result: 0

###

Test system: LZK
Construct: gene MAP3K13
DETAILS: concentration: 1 μM, replicates: in singlicate; n = 1
RECORDED METRIC: %Inh
The answer should read as a number with its unit following.

query: For `COc1cc2c(Nc3cccc(NC(=O)c4ccccc4)c3)ncnc2cc1OCCCN1CCOCC1` , write its %Inh.
result: 0%

query: Report %Inh, nothing else, for this molecule: `CS(=O)(=O)CCNCc1ccc(-c2ccc3ncnc(Nc4ccc(OCc5ccccc5)c(Cl)c4)c3c2)o1.Cl`
result: 26%

query: Tell me measured %Inh for `COc1ccc(NC(=O)c2ccc(-c3cc(-c4nnc(C)o4)ccc3C)cc2)cc1` please.
result: 12%

query: Given the molecule `C[C@H]1CC[C@@H](C(=O)Nc2ccccc2)CN1c1cc(-c2ccc3c(N)n[nH]c3c2)nc(N)n1` , write its reported %Inh.
result: 0%

query: Read off the recorded %Inh for `COc1ccc(-c2oc3ncnc(N)c3c2-c2ccc(OC)cc2)cc1`
result: 51%

query: Could you please provide reported %Inh for `Cl.c1ccc(Cn2ccc3cc(Nc4ncnc5ccccc45)ccc32)cc1` ? Thanks!
result: 35%

query: Consider the molecule COc1ccc(Nc2nccc(N3CCC(NC(=O)c4cccc(NC(C)=O)c4)C3)n2)cc1 (centres unmarked) and give its recorded %Inh.
result: 46%

query: # return recorded %Inh for input `CCc1nc(-c2cccc(N(C)S(=O)(=O)c3ccccc3)c2)c(-c2ccnc(Nc3ccc(N4CCN(C(C)=O)CC4)nc3)n2)s1`
result: 0%
